Readings of yeast fitness for the listed variants
B1: tRNA (parent)
chain: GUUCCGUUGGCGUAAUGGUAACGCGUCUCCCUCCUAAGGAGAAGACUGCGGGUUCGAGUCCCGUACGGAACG

# Variants of: B1
# assayProcedure: yeast fitness relative to wild type (ratio to wild type); higher = fitter; tRNA-Arg(CCU), competitive growth, 37 C, YPD
This sample holds only a part of the variants without activity.
Answer with a number only.

Consider the reported yeast fitness for these variants:
sequenceChange: U2A A37U A70C
yeast fitness: 0.688
--
sequenceChange: U32A G68C
yeast fitness: 0.721
--
sequenceChange: U26A C27U U59C A65G
yeast fitness: 0.65
--
sequenceChange: C31U U53G
yeast fitness: 0.644
--
sequenceChange: A15C A70C
yeast fitness: 0.751

Supply reported yeast fitness belonging to this variant: G9U G18A C46A C49G
0.552

Return reported yeast fitness. Input variant: U2C A40G
0.984

Using known records, supply yeast fitness for C4U C49A
0.787
